pIC50: −log10 of the molar value.
PARP1 (Homo sapiens, UniProt P09874) measurements of pIC50, listed per entry.
Sequence (P09874 whole entry): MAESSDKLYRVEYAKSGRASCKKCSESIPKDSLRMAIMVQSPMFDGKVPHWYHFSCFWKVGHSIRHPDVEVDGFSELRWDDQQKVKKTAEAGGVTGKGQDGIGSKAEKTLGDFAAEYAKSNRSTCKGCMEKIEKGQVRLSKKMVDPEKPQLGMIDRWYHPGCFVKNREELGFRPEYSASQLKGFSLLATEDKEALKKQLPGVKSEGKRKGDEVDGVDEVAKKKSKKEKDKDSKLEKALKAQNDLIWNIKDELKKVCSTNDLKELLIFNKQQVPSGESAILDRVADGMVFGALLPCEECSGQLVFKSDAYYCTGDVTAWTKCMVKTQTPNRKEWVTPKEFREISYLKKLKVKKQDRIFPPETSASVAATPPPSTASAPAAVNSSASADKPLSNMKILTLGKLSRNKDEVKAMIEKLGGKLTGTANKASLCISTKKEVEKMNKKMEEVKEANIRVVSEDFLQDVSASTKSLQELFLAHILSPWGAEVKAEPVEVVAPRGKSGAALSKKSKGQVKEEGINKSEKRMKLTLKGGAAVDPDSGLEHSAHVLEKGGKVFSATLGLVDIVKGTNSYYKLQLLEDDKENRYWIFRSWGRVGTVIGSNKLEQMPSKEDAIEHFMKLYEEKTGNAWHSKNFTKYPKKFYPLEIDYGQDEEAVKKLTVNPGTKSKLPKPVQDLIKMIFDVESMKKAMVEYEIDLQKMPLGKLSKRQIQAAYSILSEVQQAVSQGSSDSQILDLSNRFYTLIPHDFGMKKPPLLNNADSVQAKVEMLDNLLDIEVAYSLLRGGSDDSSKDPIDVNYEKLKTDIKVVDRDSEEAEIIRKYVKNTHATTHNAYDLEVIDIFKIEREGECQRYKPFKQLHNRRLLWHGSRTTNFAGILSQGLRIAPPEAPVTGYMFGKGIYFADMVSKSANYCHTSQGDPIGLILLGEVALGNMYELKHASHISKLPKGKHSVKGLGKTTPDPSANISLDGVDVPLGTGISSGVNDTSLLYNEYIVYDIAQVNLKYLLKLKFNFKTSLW

Record excerpt, results attached:
C[C@]1(c2ccc(-n3cc4cc(F)cc(C(N)=O)c4n3)cc2)CCCNC1 ... 6.30 to 7.00
NC(=O)c1ccc(F)c2cn(-c3ccc([C@@]4(F)CCCNC4)cc3)nc12 ... 6.30 to 7.00
NC(=O)c1cccc2cn(-c3ccc(C4(F)CCCNC4)cc3)nc12 (racemic) ... > 7.00
[2H]C1(c2ccc(-n3cc4cc(F)cc(C(N)=O)c4n3)cc2F)CCCNC1 (stereo not shown) ... > 7.00
CC1(c2ccc(-n3cc4cc(F)cc(C(N)=O)c4n3)cc2)CCCNC1 (stereo not shown) ... 6.30 to 7.00

Answer for every listed entry: what is its pIC50? The entries follow.
1. C[C@]1(c2ccc(-n3cc4cccc(C(N)=O)c4n3)cc2)CCCNC1 [Example 44]
2. NC(=O)c1cccc2c(F)n(-c3ccc([C@]4(F)CCCNC4)cc3)nc12

1: 6.30 to 7.00; 2: 6.30 to 7.00

Source: patent US11072596B2
